Experimental target: Serine/threonine-protein kinase PAK 6 (Homo sapiens, UniProt Q9NQU5); note: in the data inactive means no Kd found up to 30 µM
Sequence (Q9NQU5 whole entry): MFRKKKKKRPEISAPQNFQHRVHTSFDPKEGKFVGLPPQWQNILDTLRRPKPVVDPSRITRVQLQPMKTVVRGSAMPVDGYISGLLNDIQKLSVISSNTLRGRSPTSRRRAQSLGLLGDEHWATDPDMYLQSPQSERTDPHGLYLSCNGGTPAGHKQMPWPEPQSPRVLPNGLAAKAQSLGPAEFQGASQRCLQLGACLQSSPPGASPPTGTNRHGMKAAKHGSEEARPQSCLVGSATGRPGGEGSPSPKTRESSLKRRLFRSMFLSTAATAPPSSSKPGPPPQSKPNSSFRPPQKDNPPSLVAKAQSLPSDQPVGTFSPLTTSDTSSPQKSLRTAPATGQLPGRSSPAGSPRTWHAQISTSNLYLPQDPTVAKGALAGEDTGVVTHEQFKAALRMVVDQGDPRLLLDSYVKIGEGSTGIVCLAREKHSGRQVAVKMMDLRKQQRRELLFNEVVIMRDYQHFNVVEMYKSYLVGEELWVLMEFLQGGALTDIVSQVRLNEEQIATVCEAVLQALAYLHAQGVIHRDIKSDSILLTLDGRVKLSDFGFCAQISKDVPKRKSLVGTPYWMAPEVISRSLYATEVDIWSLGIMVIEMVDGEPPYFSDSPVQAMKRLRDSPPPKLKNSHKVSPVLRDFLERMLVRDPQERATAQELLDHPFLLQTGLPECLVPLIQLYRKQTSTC
Active and inactive are the calls of the source.
Answer with one of the outcomes given here: Yes for active, No for inactive

Use the examples below as a reference point.
>>> group("CCn1c(C(=O)N(C2CC2)C2CC2)cc2c3c(ncn3C)c(Nc3cc(C)n(C)n3)nc21")
"No"
>>> group("C[C@@H](NC(=O)c1ncnc(N)c1Cl)c1ncc(C(=O)Nc2cc(C(F)(F)F)c(Cl)cn2)s1")
"No"
>>> group("CN1CCN(CCOc2cc(OC3CCOCC3)c3c(Nc4c(Cl)ccc5c4OCO5)ncnc3c2)CC1")
"No"
>>> group("CCOc1cc2ncc(C#N)c(Nc3ccc(F)c(Cl)c3)c2cc1NC(=O)/C=C/CN(C)C")
"No"
>>> group("O=C(Nc1cc(C(F)(F)F)cc(C(F)(F)F)c1)c1cc(Cl)ccc1O")
"No"
>>> group("CCn1cc(-c2ccnc3[nH]c(-c4cccc(CN(C)C)c4)cc23)c(-c2ccc(NC(=O)N(C)C)cc2)n1")
"No"
>>> group("CO[C@H]1C[C@@H]2CC[C@@H](C)[C@@](O)(O2)C(=O)C(=O)N2CCCC[C@H]2C(=O)O[C@H]([C@H](C)C[C@@H]2CC[C@@H](OC(=O)C(C)(CO)CO)[C@H](OC)C2)CC(=O)[C@H](C)/C=C(\\C)[C@@H](O)[C@@H](OC)C(=O)[C@H](C)C[C@H](C)/C=C/C=C/C=C/1C")
"No"
>>> group("Nc1ncnc2c1c(-c1cccc(OCc3ccccc3)c1)cn2[C@H]1C[C@@H](CN2CCC2)C1")
"No"

Shift focus to the following entry.
Please let me know the test result on file for CNC(=O)c1nn(C)c2c1C(C)(C)Cc1cnc(Nc3ccc(N4CCN(C)CC4)cc3)nc1-2 .
No

---

Experimental target: cGMP-dependent protein kinase 1 (Homo sapiens, UniProt Q13976); note: in the data inactive means no Kd found up to 30 µM
Sequence (Q13976 whole entry): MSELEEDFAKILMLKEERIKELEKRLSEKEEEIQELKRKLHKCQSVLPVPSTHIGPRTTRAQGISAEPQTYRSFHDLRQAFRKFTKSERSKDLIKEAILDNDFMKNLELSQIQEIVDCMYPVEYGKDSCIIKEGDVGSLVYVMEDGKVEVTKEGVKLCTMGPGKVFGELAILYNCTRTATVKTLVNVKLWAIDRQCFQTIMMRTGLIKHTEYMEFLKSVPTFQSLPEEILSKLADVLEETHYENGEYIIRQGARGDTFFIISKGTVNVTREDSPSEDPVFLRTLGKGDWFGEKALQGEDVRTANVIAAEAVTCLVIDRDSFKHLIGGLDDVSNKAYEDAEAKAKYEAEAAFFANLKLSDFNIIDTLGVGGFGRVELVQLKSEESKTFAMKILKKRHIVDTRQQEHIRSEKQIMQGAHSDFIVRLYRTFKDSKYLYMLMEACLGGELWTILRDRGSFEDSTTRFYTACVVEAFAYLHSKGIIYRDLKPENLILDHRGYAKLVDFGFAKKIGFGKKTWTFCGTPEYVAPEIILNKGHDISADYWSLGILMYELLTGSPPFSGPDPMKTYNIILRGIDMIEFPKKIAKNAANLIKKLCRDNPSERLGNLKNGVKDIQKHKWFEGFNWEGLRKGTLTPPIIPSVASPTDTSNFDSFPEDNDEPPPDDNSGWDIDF
Calls of active or inactive are those of the source.
Answer with one of the outcomes given here: active, inactive

Use the examples below as a reference point.
>>> group("O=C(Nc1c[nH]nc1-c1nc2cc(CN3CCOCC3)ccc2[nH]1)NC1CC1")
"inactive"
>>> group("Cc1nc2cc(-n3ncc(C(=O)c4cc5ccccc5[nH]4)c3N)ccc2[nH]1")
"inactive"
>>> group("C[C@@H](NC(=O)c1ncnc(N)c1Cl)c1ncc(C(=O)Nc2cc(C(F)(F)F)c(Cl)cn2)s1")
"inactive"
>>> group("CNC(=O)c1nn(C)c2c1C(C)(C)Cc1cnc(Nc3ccc(N4CCN(C)CC4)cc3)nc1-2")
"inactive"
>>> group("Nc1ncnc2c1c(-c1cccc(OCc3ccccc3)c1)cn2[C@H]1C[C@@H](CN2CCC2)C1")
"inactive"

Shift focus to the following entry.
Please let me know the test result on file for C#Cc1cccc(Nc2ncnc3cc(OC)c(OCCCCCCC(=O)NO)cc23)c1 .
inactive

---

Experimental target: UniProtKB Q05397
Sequence (Q05397 whole entry): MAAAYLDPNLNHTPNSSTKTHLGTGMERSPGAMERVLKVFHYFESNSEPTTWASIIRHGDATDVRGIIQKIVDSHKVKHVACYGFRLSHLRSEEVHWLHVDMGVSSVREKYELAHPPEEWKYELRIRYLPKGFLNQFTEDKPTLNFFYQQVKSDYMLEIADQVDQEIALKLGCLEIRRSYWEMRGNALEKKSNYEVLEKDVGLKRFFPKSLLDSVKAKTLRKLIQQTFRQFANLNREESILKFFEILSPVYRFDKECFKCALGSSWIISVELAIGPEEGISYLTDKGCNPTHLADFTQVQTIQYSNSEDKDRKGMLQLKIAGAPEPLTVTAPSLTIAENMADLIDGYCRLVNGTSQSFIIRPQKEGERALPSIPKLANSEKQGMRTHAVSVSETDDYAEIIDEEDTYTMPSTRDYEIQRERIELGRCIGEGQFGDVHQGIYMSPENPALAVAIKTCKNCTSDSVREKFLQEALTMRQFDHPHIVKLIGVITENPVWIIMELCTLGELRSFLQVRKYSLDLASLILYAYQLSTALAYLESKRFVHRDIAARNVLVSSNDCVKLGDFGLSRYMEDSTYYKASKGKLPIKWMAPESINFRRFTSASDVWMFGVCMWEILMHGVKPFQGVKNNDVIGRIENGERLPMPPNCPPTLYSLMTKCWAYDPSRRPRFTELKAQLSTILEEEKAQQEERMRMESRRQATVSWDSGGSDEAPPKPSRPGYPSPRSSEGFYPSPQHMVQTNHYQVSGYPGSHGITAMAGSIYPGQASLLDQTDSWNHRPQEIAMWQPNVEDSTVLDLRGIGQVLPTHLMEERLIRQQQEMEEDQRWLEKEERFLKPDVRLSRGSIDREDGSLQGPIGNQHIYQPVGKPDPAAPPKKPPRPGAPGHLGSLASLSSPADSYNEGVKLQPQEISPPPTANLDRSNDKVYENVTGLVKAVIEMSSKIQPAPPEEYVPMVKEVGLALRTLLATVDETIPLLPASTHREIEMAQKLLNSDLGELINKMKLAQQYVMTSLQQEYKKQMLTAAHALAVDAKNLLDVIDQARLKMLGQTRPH
The source made the active and inactive calls.
Answer with one of the outcomes given here: active, inactive

Use the examples below as a reference point.
>>> group("CN1CCN(CCOc2cc(OC3CCOCC3)c3c(Nc4c(Cl)ccc5c4OCO5)ncnc3c2)CC1 [SARACATINIB]")
"inactive"
>>> group("O=c1[nH]ccc2cc(OC3CCNCC3)ccc12 [SAR-407899 FREE BASE]")
"inactive"
>>> group("Nc1ncnc2c1c(-c1cccc(OCc3ccccc3)c1)cn2[C@H]1C[C@@H](CN2CCC2)C1 [AEW-541]")
"inactive"

Please let me know the test result on file for Cc1csc(-c2nnc(Nc3ccc(Oc4ncccc4-c4ccnc(N)n4)cc3)c3ccccc23)c1 [AMG-900] .
inactive

Please let me know the test result on file for Cc1nc2cc(-n3ncc(C(=O)c4cc5ccccc5[nH]4)c3N)ccc2[nH]1 [FGFR INHIBITOR DEBIO 1347] .
inactive

Please let me know the test result on file for C=CC(=O)Nc1cc2c(Nc3ccc(F)c(Cl)c3)ncnc2cc1C#CC(C)(C)N1CCN(C)CC1 [AV-412 FREE BASE] .
inactive

Please let me know the test result on file for COc1ccc(S(=O)(=O)N(C(C)=O)c2ccccc2/C=C/c2cc[n+]([O-])cc2)cc1 [HMN-214] .
inactive

Please let me know the test result on file for Cc1nc2cc(-c3nn(C(C)C)c4ncnc(N)c34)ccc2o1 .
inactive

Please let me know the test result on file for O=C(Nc1cc(C(F)(F)F)cc(C(F)(F)F)c1)c1cc(Cl)ccc1O [IMD-0354] .
inactive

Please let me know the test result on file for COc1cc2c(Nc3ccc(Cl)c(Cl)c3F)ncnc2cc1OC[C@@H]1C[C@@H]2CN(C)C[C@@H]2C1 [TESEVATINIB] .
inactive

Please let me know the test result on file for CC(C)c1cc(CNc2nc(Nc3cc(C4CC4)[nH]n3)cc(N3CCN(C)CC3)n2)on1 [XL-228] .
active

---

Experimental target: Inhibitor of nuclear factor kappa-B kinase subunit epsilon (Homo sapiens); note: in the data inactive means no Kd found up to 30 µM
Sequence (Q14164 whole entry): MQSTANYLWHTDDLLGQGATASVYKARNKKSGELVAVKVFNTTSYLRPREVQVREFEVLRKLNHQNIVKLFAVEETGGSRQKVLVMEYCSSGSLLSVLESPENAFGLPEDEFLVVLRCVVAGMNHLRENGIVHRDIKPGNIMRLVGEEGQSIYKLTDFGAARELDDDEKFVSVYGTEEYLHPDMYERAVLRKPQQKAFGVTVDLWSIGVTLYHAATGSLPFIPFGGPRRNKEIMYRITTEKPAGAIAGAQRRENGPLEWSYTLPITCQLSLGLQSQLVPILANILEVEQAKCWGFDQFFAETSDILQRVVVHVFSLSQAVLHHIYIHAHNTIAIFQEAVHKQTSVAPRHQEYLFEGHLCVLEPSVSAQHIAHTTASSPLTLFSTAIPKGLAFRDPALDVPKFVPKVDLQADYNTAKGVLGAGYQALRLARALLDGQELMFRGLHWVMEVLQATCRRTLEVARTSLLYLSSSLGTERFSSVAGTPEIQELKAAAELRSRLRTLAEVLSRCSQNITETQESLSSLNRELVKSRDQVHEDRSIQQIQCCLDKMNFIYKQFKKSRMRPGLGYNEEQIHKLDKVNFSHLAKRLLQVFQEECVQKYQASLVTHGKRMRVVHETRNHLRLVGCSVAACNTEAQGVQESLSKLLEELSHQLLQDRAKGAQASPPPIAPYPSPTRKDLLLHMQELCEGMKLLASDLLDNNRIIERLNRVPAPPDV
Activity calls are given as the source filed them.
Answer with one of the outcomes given here: yes (1) = active, no (0) = inactive

>>> group("Cc1cc(Nc2ncnc3ccc(NC4=NC(C)(C)CO4)cc23)ccc1Oc1ccn2ncnc2c1")
"no (0)"

Please let me know the test result on file for COc1cc([C@@H]2c3cc4c(cc3[C@H](O)[C@H]3COC(=O)[C@@H]23)OCO4)cc(OC)c1OC .
no (0)

Please let me know the test result on file for CCCCCCCCCCCCCCCCCCOP(=O)([O-])OC1CC[N+](C)(C)CC1 .
no (0)

Please let me know the test result on file for O=C(Cc1ccc(-c2ccc(OCCN3CCOCC3)cc2)cn1)NCc1ccccc1 .
no (0)

Please let me know the test result on file for COc1cc2ncnc(Oc3cccc(NC(=O)Nc4cc(C(C)(C)C(F)(F)F)on4)c3)c2cc1OC .
no (0)

Please let me know the test result on file for CC(C)c1cc(CNc2nc(Nc3cc(C4CC4)[nH]n3)cc(N3CCN(C)CC3)n2)on1 .
yes (1)

Please let me know the test result on file for C=CC(=O)N1CCC[C@H](n2c(=O)n(-c3ccc(Oc4ccccc4)cc3)c3c(N)ncnc32)C1 .
no (0)

Please let me know the test result on file for O=C(Nc1cc(C(F)(F)F)cc(C(F)(F)F)c1)c1cc(Cl)ccc1O .
no (0)

Please let me know the test result on file for Cc1nc2cc(-c3nn(C(C)C)c4ncnc(N)c34)ccc2o1 .
no (0)

Please let me know the test result on file for Cc1cc(Nc2ncc(Cl)c(Nc3ccccc3S(=O)(=O)C(C)C)n2)c(OC(C)C)cc1C1CCNCC1 .
no (0)

Please let me know the test result on file for CNC(=O)c1cccc2cc(Oc3ccnc4cc(OCC5(N)CC5)c(OC)cc34)ccc12 .
no (0)

Please let me know the test result on file for Cn1ncc(Cl)c1-c1cc(C(=O)N[C@H](CN)Cc2ccc(F)c(F)c2)oc1Cl .
no (0)

Please let me know the test result on file for Cn1cc(-c2cnc3ccc4ccc(CS(=O)(=O)NCc5ccccn5)cc4c(=O)c3c2)cn1 .
no (0)

Please let me know the test result on file for Cc1csc(-c2nnc(Nc3ccc(Oc4ncccc4-c4ccnc(N)n4)cc3)c3ccccc23)c1 .
no (0)

Please let me know the test result on file for CCNC(=O)C#Cc1ccc2c(c1)NC(=O)/C2=C(\Nc1ccc(CN(C)C)cc1)c1ccccc1 .
yes (1)

Please let me know the test result on file for NC1(c2ccc(-c3nc4ccn5c(=O)[nH]nc5c4cc3-c3ccccc3)cc2)CCC1 .
no (0)
